Tested on: UO-31
Assay: NCI tumour cell line growth inhibition, 48 h
Activity calls are given as the source filed them. Cut-off read from the data, not from the text of the source: active = GI50 up to about 1.1 µM and inactive = higher.
measure.name: GI50

Example entries and their recorded answers appear below.
## Input Consider the compound C=CCCCCCCCCC(=O)NS(=O)(=O)c1ccccc1 and give its measured GI50.
## Output 30.7 µM (inactive)

## Input Consider the compound Cc1nc(-c2cccnc2)sc1C(=O)CC(=O)C(=O)Nc1cccc(NC(=O)C(=O)CC(=O)c2sc(-c3cccnc3)nc2C)n1 and give its measured GI50.
## Output > 100 µM (inactive)

## Input Consider the compound COC1=CC(=Nc2c(Cl)cc(Cl)cc2OC(=O)c2ccc([N+](=O)[O-])cc2)C=C(OC)C1=O and give its measured GI50.
## Output 11.9 µM (inactive)

## Input Consider the compound O=C(NCCO)c1ccc(Cl)cc1 and give its measured GI50.
## Output > 100 µM (inactive)

Further cases:
## Input Consider the compound CC1(CO)OC1COCc1ccccc1 (stereo not given) and give its measured GI50.
## Output > 100 µM (inactive)

## Input Consider the compound CSc1ncnc2c1ncn2CCC(=O)O and give its measured GI50.
## Output > 100 µM (inactive)

## Input Consider the compound CCOC(=O)NC(Nc1cccc(C(F)(F)F)c1)(C(F)(F)F)C(F)(F)F and give its measured GI50.
## Output 93.8 µM (inactive)

## Input Consider the compound O=C1NCN(c2ccccc2)C12CCN(CCCN1CCN(CCOC(c3ccc(F)cc3)c3ccc(F)cc3)CC1)CC2 and give its measured GI50.
## Output 1.74 µM (inactive)

## Input Consider the compound O=S(=O)(c1ccccc1)n1c(C(O)c2ccccc2)cc2ccccc21 (stereo not given) and give its measured GI50.
## Output 11.7 µM (inactive)

## Input Consider the compound c1ccc(COC2(OCc3ccccc3)CC3OC2C2NN=NC32)cc1 (stereo not given) and give its measured GI50.
## Output 29.7 µM (inactive)

----------
Let's go through some GI50 measurements on HCT-15 together.

## Input Consider the molecule N#Cc1[nH]c(=O)n(-c2ccc(Cl)cc2)c1N and give its measured GI50.
## Output > 10 µM

## Input Consider the molecule COc1ccc(C2N(c3ccc(C)c(N=C=O)c3)C(=O)N3C(c4ccc(OC)cc4)N(c4ccc(C)c(N=C=O)c4)C(=O)N23)cc1 (stereo not given) and give its measured GI50.
## Output > 100 µM

## Input Consider the molecule O=C(O)CNC(=O)c1c2ccccc2nc2ccccc12 and give its measured GI50.
## Output > 100 µM

## Input Consider the molecule O=c1/c(=C/c2ccccc2F)sc2nc3ccccc3n12 and give its measured GI50.
## Output > 100 µM

## Input Consider the molecule CC1(C)COC(/C=C/C2=NC(C)(C)CO2)=N1 and give its measured GI50.
## Output 15.1 µM

## Input Consider the molecule c1sc(NC2=NCCO2)c2c1CCCC2 and give its measured GI50.
## Output > 100 µM

## Input Consider the molecule CCOC(=O)CCC(NC(=O)C(CCC(=O)OCC)NC(=O)C(Cc1ccc([N+](=O)[O-])cc1)NC(C)=O)C(=O)NNC(=O)OC(C)(C)C (stereo not given) and give its measured GI50.
## Output > 100 µM

## Input Consider the molecule CC(=O)NNc1nc(C)c(C(=O)NNC(=O)C(=O)Nc2ccc(C)cc2[N+](=O)[O-])s1 and give its measured GI50.
## Output > 100 µM

## Input Consider the molecule C=CCN1CCC(c2cc(C(=O)OCC)[nH]c2-c2cc(C)no2)C1=O (stereo not given) and give its measured GI50.
## Output > 100 µM

## Input Consider the molecule O=C(O)[C@@H]1C2CC([C@@H]1C(=O)O)[C@H](N1C(=O)CCC1=O)[C@@H]2Br (stereo not given in full) and give its measured GI50.
## Output > 100 µM
